test system: U937 cell line (human histiocytic lymphoma cell line); assay: U937 cell viability assay (TNF-α + Z-VAD-FMK induced necroptosis); type: cell-based; conditions: Homo sapiens, U-937; U937 cells, hTNF-α 0.1 μg/mL + Z-VAD-FMK 50 μM, 20 hours, CellTiter-Glo
RESULT TYPE: IC50 (nM)
Note: unit nM is implicit; provide only the numeric part.

U937 cell line (human histiocytic lymphoma cell line) / IC50 / Cn1c(N)ncc(-c2ccc(C3(NC(=O)c4nnc(Cc5ccccc5)[nH]4)CC3)cc2)c1=O [Compound 7] : value? 68

Now try CC(C)n1cncc(-c2ccc(C3(NC(=O)c4ncc5cnn([C@@H](C)C6CC6)c5n4)CC3)cc2)c1=O [Compound 90] . 4

Likewise for CC(C)n1ncc2cnc(C(=O)NC3(c4ccc(-c5cncn(C)c5=O)cc4)CC3)cc21 [Compound 28] ? 135

And then C[C@H](c1ccccc1)n1cnc(C(=O)NC2(c3ccc(-c4cncn(C)c4=O)cc3)CC2)n1 [Compound 55] , what is it? 7

Let us now turn to CC(C)n1cncc(-c2ccc(C3(NC(=O)c4ncc5cnn(CC6CC6)c5n4)CC3)cc2)c1=O [Compound 61] 3

Queued: CC(C)n1cncc(-c2ccc(C3(NC(=O)c4ncc5cnn(CC6CC6)c5n4)CC3)c(F)c2)c1=O [Compound 72] 2

Record: CC(C)n1ncc2cnc(C(=O)NC3(c4ccc(-c5cncn([C@@H](C)C6CC6)c5=O)cc4)CC3)nc21 [Compound 85] 2
